test system: CAKI-1 renal; assay: NCI-60 one-dose screen, 48 h (100 = growth as untreated, 0 = no growth, -100 = all killed); conditions: 10 µM unless noted
The panel holds about 83,000 compounds, 20% with a hit somewhere; the sample as a whole holds those more often.
# growth annotations
Write the value in % as a bare number.

Reference set (3 entries):
[
  {
    "COMPOUND": "Nc1nc(N)c2cc(NCc3ccc(Cl)c(Cl)c3)ccc2n1",
    "ENDPOINT_RESULT": -68.4
  },
  {
    "COMPOUND": "O=S(=O)(Cc1ccc(Cl)cc1Cl)c1ccc(Cl)cc1",
    "ENDPOINT_RESULT": 38.1
  },
  {
    "COMPOUND": "Nc1c(N)c2ccccc2c2ccccc12",
    "ENDPOINT_RESULT": 89
  }
]

Q: Recorded growth for COc1cccc(-c2cc(-c3cccs3)c(C#N)c(=O)[nH]2)c1 , please?
Ans: 96.8

Q: Reported growth for CCN1C(=O)C(C)C=C(C)C=C1C (stereo unspecified) : what is it?
Ans: 107

Q: If you can, please state the reported growth value of COc1cc(C)c(Cl)cc1C1=NN(c2ccc(S(N)(=O)=O)cc2)C(/C=C/c2ccccc2)C1 (stereo unspecified) .
Ans: 59.5

Q: I'd like to know its growth. The compound in question is Oc1c(C(Nc2ccccc2Br)c2ccccc2)ccc2cccnc12 (stereo unspecified)
Ans: 13.2

Q: Dear colleague, I am looking for the recorded growth of the following compound: CCOC(OCC)c1cnc2nc(NC(C)=O)[nH]c(=O)c2n1
Ans: 102

Q: Could you tell me which growth is on file for CCCCCN(CCCCC)C(=O)C(CCC(=O)O)NC(=O)c1ccc(Cl)c(Cl)c1 (stereo unspecified) ?
Ans: 91.3

Q: I am curious: what growth value has been reported for CCSCC1CC(O)(c2ccccc2)C(c2ccccc2)C(c2ccc(F)cc2)O1 (stereo unspecified) ?
Ans: -13.5

Q: Entry O=C(CSc1nnc(Cc2ccccc2Nc2c(Cl)cccc2Cl)n1-c1ccccc1)N1N=C(c2ccc3ccccc3c2)CC1c1ccc(Cl)cc1 (stereo unspecified) : reported growth = ?
Ans: 92.7
